All values here come from the RNAGym collection of RNA variant scans (doi:10.1101/gad.245936.114).

Measured nonsense suppression by item
B1: tRNA (parent)
chain: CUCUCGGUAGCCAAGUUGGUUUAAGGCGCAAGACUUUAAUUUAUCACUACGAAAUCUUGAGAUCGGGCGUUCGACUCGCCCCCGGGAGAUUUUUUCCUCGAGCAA

Variants of: B1
TEST_DESCRIPTION: nonsense suppression (GFP-seq) (ratio to wild type); higher = more function; SUP4oc tRNA, yeast GFP reporter sort-seq
Fewer inactive variants are shown than the library holds.
QUANTITY_KIND: nonsense suppression

[
  {
    "MUTATION_LABEL": "A13C G18C U20G A31U",
    "QUANTITY_KIND": "nonsense suppression",
    "SIGN": "=",
    "MEAS_VALUE": 0.134
  },
  {
    "MUTATION_LABEL": "U57C G73A",
    "QUANTITY_KIND": "nonsense suppression",
    "SIGN": "=",
    "MEAS_VALUE": 0.0414
  },
  {
    "MUTATION_LABEL": "A9G G84A",
    "QUANTITY_KIND": "nonsense suppression",
    "SIGN": "=",
    "MEAS_VALUE": 0.0699
  },
  {
    "MUTATION_LABEL": "C27G U57C U58G G66A C68G",
    "QUANTITY_KIND": "nonsense suppression",
    "SIGN": "≤",
    "MEAS_VALUE": 0.026
  },
  {
    "MUTATION_LABEL": "A9C U21A A31G U71C",
    "QUANTITY_KIND": "nonsense suppression",
    "SIGN": "≤",
    "MEAS_VALUE": 0.026
  },
  {
    "MUTATION_LABEL": "A9U A33G",
    "QUANTITY_KIND": "nonsense suppression",
    "SIGN": "=",
    "MEAS_VALUE": 0.0334
  },
  {
    "MUTATION_LABEL": "C5U C75U",
    "QUANTITY_KIND": "nonsense suppression",
    "SIGN": "=",
    "MEAS_VALUE": 0.0347
  },
  {
    "MUTATION_LABEL": "A13G G59U",
    "QUANTITY_KIND": "nonsense suppression",
    "SIGN": "≤",
    "MEAS_VALUE": 0.026
  },
  {
    "MUTATION_LABEL": "U17A A31G C72G U76A G78U",
    "QUANTITY_KIND": "nonsense suppression",
    "SIGN": "≤",
    "MEAS_VALUE": 0.026
  }
]
